Measured values drawn from patent US20210095028A1 for this set.

Biological target: T1, human TIGIT over-expressed on cells (human, UniProt Q495A1 22-244)
T1 sequence: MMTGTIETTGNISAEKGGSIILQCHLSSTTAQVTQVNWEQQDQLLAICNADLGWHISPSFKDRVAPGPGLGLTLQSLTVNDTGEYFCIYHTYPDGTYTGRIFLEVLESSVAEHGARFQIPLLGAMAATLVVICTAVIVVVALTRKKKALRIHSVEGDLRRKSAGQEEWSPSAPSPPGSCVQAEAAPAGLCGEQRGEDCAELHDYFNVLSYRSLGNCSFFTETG
Test: cell-based or functional assay
measurementKind: IL-2 secretion in T cell activation, EC50 (nM)
Express your answer in nM, writing the number without its unit.

For the binder shown here, 121C2F10B5 (antibody, V domains shown, Mouse monoclonal antibody; also called mouse anti-human TIGIT monoclonal antibody 121C2F10B5) VH: EVQLVESGGDLVKPGGSLKLSCAASGFTFSTYGMSWVRQTPDKRLEWVATISSGGSYTYYPDSVKGRFTISRDNAKNTLYLQMSSLKSEDTAMYYCARQVHYFYAMDYWGQGTSVTVSS VL: DIQMTQSPASLSVSVGETVTITCRASENIYSNLAWYQQKQGKSPQVLVYAATNLADGVPSRFSGSRSGTQYSLKINSLQSEDFGSYYCQHFWDNAYTFGGGTKLEIK , give the reported IL-2 secretion in T cell activation, EC50.
1.02

For the binder shown here, 100C4E7D11 (antibody, V domains shown, Mouse monoclonal antibody; also called mouse anti-human TIGIT monoclonal antibody 100C4E7D11) VH: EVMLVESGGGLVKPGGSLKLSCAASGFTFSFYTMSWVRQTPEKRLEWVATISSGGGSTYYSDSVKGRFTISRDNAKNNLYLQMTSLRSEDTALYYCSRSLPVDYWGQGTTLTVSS VL: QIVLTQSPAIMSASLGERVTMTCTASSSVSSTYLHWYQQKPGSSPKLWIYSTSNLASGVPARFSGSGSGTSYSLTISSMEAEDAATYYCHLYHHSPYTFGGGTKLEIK , give the reported IL-2 secretion in T cell activation, EC50.
0.98

For the binder shown here, 92E9D4B4 (antibody, V domains shown, Mouse monoclonal antibody; also called mouse anti-human TIGIT monoclonal antibody 92E9D4B4) VH: EVMLVESGGGLVKPGGSLKLSCAASGFTFSFYTMSWVRQTPEKRLEWVATISGGGGDTYYPDNVKGRFTISRDNAKNNLYLQMSSLRSEDTALYYCARSLPVDFWGQGTTLTVSS VL: QIVLTQSPAIMSASLGERVTMTCTASSSVSSTYLHWYQQKPGSSPKFWIYSTSNMASGVPARFSGSGSGTSYSLTISSMEAEDAATYYCHYYHRSPYTFGGGTKLEIK , give the reported IL-2 secretion in T cell activation, EC50.
3.36
